- System: NCI-H522 lung
- ASSAY TEXT: NCI-60 one-dose screen, 48 h
- TEST PARAMETERS: 10 µM
Compounds without any hit were thinned out: in the full panel of roughly 83,000, 20% have a hit. Calls of active or inactive are those of the source. Rule for the calls: active = growth percent below 10; inactive = the rest.
Permitted responses: Yes for active, No for inactive

- COMPOUND: "O=C(N/N=C/c1cc([N+](=O)[O-])ccc1O)c1cccc2ccccc12"
  CLASS ASSIGNMENT: "No"

Can you look up the reported call for CCN(CC)CCOC(=O)c1cc(OCc2ccccc2)c(OCc2ccccc2)c(OCc2ccccc2)c1 for me?
No

How was CCCC1(CN2c3ccccc3Sc3ccc(Cl)cc32)CCN(CC)C1 (configuration not stated) classified in this test?
Yes

What is the recorded call for this compound in the test? O=C(N/N=C/c1c(Cl)cccc1Cl)c1ccccc1Nc1cccc(C(F)(F)F)c1
No

How did this test come out for CS(=O)(=O)c1nccc(-c2c(-c3cccc(OCCN4CCOCC4)c3)nc3sccn23)n1 ?
Yes

Please share the test call associated with NC(N)=N/N=C(\N=Nc1ccccc1)c1ccc(Cl)cc1 .
No
